Assay: Tmax in Sprague-Dawley rat at 5 mg/kg, po administered as single dose measured upto 24 hrs by LC-MS/MS analysis
Format: ADME, organism-based
Settings: in vivo
quantity: Tmax (h)
Number in h, nothing else.

Record request: Tmax value, item CCO/N=C/c1ccc(OCCC(C)CCN2CCN(c3ccnc(N)c3)C2=O)cc1 (stereo unspecified)
1

====

Assay: Acute toxicity in juvenile zebrafish assessed as fatality rate at 200 uM after 48 hrs
Details: in vivo
List of mortality at 48 h, 200 µM values.
Number in %, nothing else.

// below: answered compounds
{"columns": ["compound", "mortality at 48 h, 200 µM (%)"],
 "data": [
  ["CCCc1nc(-c2ccc(OCCC(C)CCN3CCN(c4ccnc(N)c4)C3=O)cc2)no1 (centres undefined)", 100],
  ["CC(CCOc1ccc(-c2noc(C(F)(F)F)n2)cc1)CCN1CCN(c2ccnc(N)c2)C1=O (centres undefined)", 100],
  ["CCO/N=C/c1ccc(OCCC(C)CCN2CCN(c3ccnc(N)c3)C2=O)cc1 (centres undefined)", 100],
  ["Cc1nc(-c2ccc(OCCC(C)CCN3CCN(c4ccnc(N)c4)C3=O)cc2)no1 (centres undefined)", 100],
  ["CCc1nc(-c2ccc(OCCC(C)CCN3CCN(c4ccnc(N)c4)C3=O)cc2)no1 (centres undefined)", 100]
]}

Record request: mortality at 48 h, 200 µM value, item CC(CCOc1ccc(-c2noc(C(C)(C)C)n2)cc1)CCN1CCN(c2ccnc(N)c2)C1=O (centres undefined)
100

Next entry: CCO/N=C/c1ccc(OCCCCCN2CCN(c3ccnc(N)c3)C2=O)cc1
100

Next entry: CCO/N=C/c1ccc(OCCC(C)CCN2CCN(c3ccccc3)C2=O)cc1 (centres undefined)
100

Next entry: CCO/N=C/c1ccc(OCCC(C)CCN2CCN(c3ccnc(OC)c3)C2=O)cc1 (centres undefined)
100
